# assay overview: Estimated solubility by solvent addition method via visual assessment
# Assay type: physicochemical
# test context: organic solvent or mixture, thermodynamic from solid; IPAC, room temperature; read-out: Solubility
measured parameter: solubility

[
  {
    "compound": "Cc1n[nH]c2nc(-c3ccc(NS(=O)(=O)c4cc(F)ccc4F)c(F)c3)nc(NCCN(C)C)c12 [Compound 4 Form B]",
    "value measured": "< 1500 µg/mL"
  }
]

====

# assay overview: Estimated solubility by solvent addition method via visual assessment
# Type: physicochemical
# test context: organic solvent or mixture, thermodynamic from solid; ACN/Water (9/1), RT; read-out: Solubility, Concentration

[
  {
    "molecule": "Cc1n[nH]c2nc(-c3ccc(NS(=O)(=O)c4cc(F)ccc4F)c(F)c3)nc(NCCN(C)C)c12.Cl [Compound 3 Form B]",
    "solubility": "1.5 to 1.7 mg/mL"
  }
]

====

# assay overview: Estimated solubility by solvent addition method via visual assessment
# Format: physicochemical
# test context: organic solvent or mixture, thermodynamic from solid; EtOH, RT; read-out: Solubility, Concentration

[
  {
    "molecule": "Cc1n[nH]c2nc(-c3ccc(NS(=O)(=O)c4cc(F)ccc4F)c(F)c3)nc(NCCN(C)C)c12.Cl [Compound 3 Form B]",
    "solubility": "< 1500 µg/mL"
  }
]

====

# assay overview: Estimated solubility by solvent addition method via visual assessment
# Assay type: physicochemical
# test context: organic solvent or mixture, thermodynamic from solid; DMA, 70° C.; read-out: Solubility, Concentration
# Procedure: Solubility of Compound 3 Form B was estimated in 30 solvents at room temperature and in 9 organic solvents at 70° C. using solvent addition method via visual assessment. Protocol: about 3 mg of Compound 3 Form B was weighed into a sample vial and the solvent was added gradually with vortex until the drug solution was clear by observation or a total of 2 mL solvent was added. Then, the estimated solubility (mg/mL) was calculated. […]

[
  {
    "molecule": "Cc1n[nH]c2nc(-c3ccc(NS(=O)(=O)c4cc(F)ccc4F)c(F)c3)nc(NCCN(C)C)c12.Cl [Compound 3 Form B]",
    "solubility": "20 to 40 mg/mL"
  }
]

====

# assay overview: Solubility estimates by aliquot addition method in various solvents
# Type: physicochemical
# test context: MTBE, organic solvent or mixture, thermodynamic from solid; read-out: Solubility at RT
measured parameter: solubility

[
  {
    "molecule": "Cc1n[nH]c2nc(-c3ccc(NS(=O)(=O)c4cc(F)ccc4F)c(F)c3)nc(NCCN(C)C)c12 [Compound 1]",
    "measured parameter": "solubility",
    "value measured": "< 2000 µg/mL"
  }
]

====

# assay overview: Solubility estimates by aliquot addition method in various solvents
# Assay type: physicochemical
# test context: DMSO, organic solvent or mixture, thermodynamic from solid; read-out: Solubility at RT

[
  {
    "structure smiles": "Cc1n[nH]c2nc(-c3ccc(NS(=O)(=O)c4cc(F)ccc4F)c(F)c3)nc(NCCN(C)C)c12",
    "solubility (mg/mL)": 41
  }
]

====

# assay overview: Estimated solubility by solvent addition method via visual assessment
# Format: physicochemical
# test context: organic solvent or mixture, thermodynamic from solid; IPAC, RT; read-out: Solubility, Concentration
measured parameter: solubility

[
  {
    "compound": "Cc1n[nH]c2nc(-c3ccc(NS(=O)(=O)c4cc(F)ccc4F)c(F)c3)nc(NCCN(C)C)c12.Cl [Compound 3 Form B]",
    "measured parameter": "solubility",
    "value measured": "< 1500 µg/mL"
  }
]
